test: Vorinostat serum pharmacokinetics
Assay type: in vivo, human
protocol conditions: human, serum, po, 300 mg, Tmax, vorinostat 300 mg PO BID, Day 1, serum, mean
measured metric: Tmax
Write down the value, and be sure its unit follows.

input: Which Tmax value is on record for O=C(CCCCCCC(=O)Nc1ccccc1)NO [vorinostat, Suberoylanilide Hydroxamic Acid] ?
output: 1.6 h

###

test: Vorinostat serum pharmacokinetics
Assay type: in vivo, human
protocol conditions: human, serum, po, 300 mg, AUC, vorinostat 300 mg PO BID, Day 5 (with FOLFOX), serum, mean
measured metric: AUC (µM·h)
Give the value, in units of µM·h, as a plain number.

input: Data request, read-out AUC, for O=C(CCCCCCC(=O)Nc1ccccc1)NO [vorinostat, Suberoylanilide Hydroxamic Acid]
output: 6.8

Data provenance: paper PMC4134938
